system: biotinyl-Leu-oxazolone; assay: self-aminoacylation, catalytic enhancement (BLO) (fold over background); higher = more active; k-Seq, kA / k0A0; sequences stand for … in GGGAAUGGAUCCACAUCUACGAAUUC…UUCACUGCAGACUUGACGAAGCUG
Variants at the floor of the assay were thinned out.
Label n if self-aminoacylation falls below 2; label y in every other case.

Example entries begin here.
>>> label_class("AAGUUUGCUCAUAGUCCCAAG [Fam3.1 aminoacylation ribozyme variant]")
"n"
>>> label_class("AUUACCCUCCUCAUCGAGUGA [Fam2.1 aminoacylation ribozyme variant]")
"y"
>>> label_class("CCACACAACAAGCAAUCGGUC [Fam1B.1 aminoacylation ribozyme variant]")
"n"
>>> label_class("AUUCACUUAGGUCAUAGGGUG [Fam2.2 aminoacylation ribozyme variant]")
"y"
>>> label_class("AUCCACCUAGGUCAUCAGGUG [Fam2.2 aminoacylation ribozyme variant]")
"n"

Textbook exercise: given the entry CUACACUUCAUGCAAUCGGUC [Fam1B.1 aminoacylation ribozyme variant] , state whether its self-aminoacylation is greater than or equal to 2.
n

Textbook exercise: given the entry CUACUUCAAACAUUCGGUCUG [Fam1A.1 aminoacylation ribozyme variant] , state whether its self-aminoacylation is greater than or equal to 2.
n

Textbook exercise: given the entry CGACACUUCAAGCACUCGGUC [Fam1B.1 aminoacylation ribozyme variant] , state whether its self-aminoacylation is greater than or equal to 2.
n

###

test system: biotinyl-Phe-oxazolone; assay: self-aminoacylation, catalytic enhancement (BFO) (fold over background); higher = more active; k-Seq, kA / k0A0; sequences stand for … in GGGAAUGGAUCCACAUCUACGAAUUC…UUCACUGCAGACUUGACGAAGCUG
Fewer inactive variants are shown than the library holds.
Label 0 (no) if self-aminoacylation falls below 2; label 1 (yes) in every other case.

>>> label_class("CAACUUCAAACAAUCGGUCUU [Fam1A.1 aminoacylation ribozyme variant]")
"1 (yes)"

Textbook exercise: given the entry CUACUUCGAACACUCGGUCUG [Fam1A.1 aminoacylation ribozyme variant] , state whether its self-aminoacylation is greater than or equal to 2.
1 (yes)

Textbook exercise: given the entry AUUGCCUUGGUCAUCGAGUGA [Fam2.1 aminoacylation ribozyme variant] , state whether its self-aminoacylation is greater than or equal to 2.
1 (yes)

Textbook exercise: given the entry AAGUUUGCUAAUAGGUGCAAG [Fam3.1 aminoacylation ribozyme variant] , state whether its self-aminoacylation is greater than or equal to 2.
0 (no)

Textbook exercise: given the entry AAUGCCCUGGUCAUCGAGUGA [Fam2.1 aminoacylation ribozyme variant] , state whether its self-aminoacylation is greater than or equal to 2.
1 (yes)

Textbook exercise: given the entry CUACUUCAAAUAAACGGUCUG [Fam1A.1 aminoacylation ribozyme variant] , state whether its self-aminoacylation is greater than or equal to 2.
0 (no)

Textbook exercise: given the entry AUUGCCCUGGUCAUCUAGUGA [Fam2.1 aminoacylation ribozyme variant] , state whether its self-aminoacylation is greater than or equal to 2.
1 (yes)

Textbook exercise: given the entry AUUGACCUAGGUCAUCGGGCG [Fam2.2 aminoacylation ribozyme variant] , state whether its self-aminoacylation is greater than or equal to 2.
1 (yes)

Textbook exercise: given the entry AUUCUCCUAGGUCCUCGGGUG [Fam2.2 aminoacylation ribozyme variant] , state whether its self-aminoacylation is greater than or equal to 2.
1 (yes)

###

tested on: biotinyl-Trp-oxazolone; assay: self-aminoacylation, catalytic enhancement (BWO) (fold over background); higher = more active; k-Seq, kA / k0A0; sequences stand for … in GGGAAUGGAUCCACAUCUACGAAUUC…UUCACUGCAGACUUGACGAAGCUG
This sample holds only a part of the variants without activity.
PARAMETER: self-aminoacylation
// response body must contain only the number

Examples with their reported self-aminoacylation follow.
>>> value_measured("AUUAGUCUGGUCAUCGAGUGA [Fam2.1 aminoacylation ribozyme variant]")
3.94
>>> value_measured("CUUACCCUGGUCAUCGACUGA [Fam2.1 aminoacylation ribozyme variant]")
1.31

Could you tell me which self-aminoacylation is on file for GUACUUCAAACAAUCGGUCUU [Fam1A.1 aminoacylation ribozyme variant] ?
12

Could you tell me which self-aminoacylation is on file for AUUACCCUGGUCAUAGCGUGA [Fam2.1 aminoacylation ribozyme variant] ?
10.6

Could you tell me which self-aminoacylation is on file for AUUACCCUGGUCAUCGCGGGA [Fam2.1 aminoacylation ribozyme variant] ?
3.4

###

system: biotinyl-Ile-oxazolone; assay: self-aminoacylation, catalytic enhancement (BIO) (fold over background); higher = more active; k-Seq, kA / k0A0; sequences stand for … in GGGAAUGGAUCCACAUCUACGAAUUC…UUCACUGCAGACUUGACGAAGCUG
Variants at the floor of the assay were thinned out.
PARAMETER: self-aminoacylation
// response body must contain only the number

Examples with their reported self-aminoacylation follow.
>>> value_measured("CUACUUCAAACAAUCGGGAUG [Fam1A.1 aminoacylation ribozyme variant]")
0.904
>>> value_measured("AUUACCCAAGUCAUCGAGUGA [Fam2.1 aminoacylation ribozyme variant]")
4.5
>>> value_measured("CUACUUCAAACAACCAGUCUG [Fam1A.1 aminoacylation ribozyme variant]")
1.02
>>> value_measured("AAGUUUGCUAAUAGCCGCGAG [Fam3.1 aminoacylation ribozyme variant]")
1.05
>>> value_measured("CUAUUUCAAACAAUCGGACUG [Fam1A.1 aminoacylation ribozyme variant]")
0.976

Could you tell me which self-aminoacylation is on file for CCCAACUUCAAGCAAUCGGUC [Fam1B.1 aminoacylation ribozyme variant] ?
1.56

Could you tell me which self-aminoacylation is on file for CUACUUAAAACAAUCGCUCUG [Fam1A.1 aminoacylation ribozyme variant] ?
0.623

Could you tell me which self-aminoacylation is on file for AUUCCCCUGGUCAUAGAGUGA [Fam2.1 aminoacylation ribozyme variant] ?
5.4

Could you tell me which self-aminoacylation is on file for AAGCUUGCUAAUAGUCGCGAG [Fam3.1 aminoacylation ribozyme variant] ?
2.66

Could you tell me which self-aminoacylation is on file for AUGUGUGCUAAUAGUCGCAAG [Fam3.1 aminoacylation ribozyme variant] ?
1.57

Could you tell me which self-aminoacylation is on file for CUGCUUCAGACAAUCGGUCUG [Fam1A.1 aminoacylation ribozyme variant] ?
0.949

Could you tell me which self-aminoacylation is on file for AUUCACCUGGGUCAUCGGGAG [Fam2.2 aminoacylation ribozyme variant] ?
1.65

Could you tell me which self-aminoacylation is on file for GACUUUGCUAAUAGUCGCAAG [Fam3.1 aminoacylation ribozyme variant] ?
1.74

Could you tell me which self-aminoacylation is on file for AUGUUUGCUAAUAGUCGCAUG [Fam3.1 aminoacylation ribozyme variant] ?
1.34

Could you tell me which self-aminoacylation is on file for GUACUUCAAAAAAUCGGUCUG [Fam1A.1 aminoacylation ribozyme variant] ?
1.57

Could you tell me which self-aminoacylation is on file for CUACUUUAAACAAUAGGUCUG [Fam1A.1 aminoacylation ribozyme variant] ?
0.925

Could you tell me which self-aminoacylation is on file for AAGUUUGCUAACAAUCGCAAG [Fam3.1 aminoacylation ribozyme variant] ?
0.619

Could you tell me which self-aminoacylation is on file for AUUACCCUGCUCAUCGAGUCA [Fam2.1 aminoacylation ribozyme variant] ?
0.779

Could you tell me which self-aminoacylation is on file for CGAUUUCAAACAAUCGGUCUG [Fam1A.1 aminoacylation ribozyme variant] ?
1.74

Could you tell me which self-aminoacylation is on file for AUUACCCUGGUCAUCGCCUGA [Fam2.1 aminoacylation ribozyme variant] ?
2.72

Could you tell me which self-aminoacylation is on file for CUACGUCAAGCAAUCGGUCUG [Fam1A.1 aminoacylation ribozyme variant] ?
1.63

Could you tell me which self-aminoacylation is on file for CUACUUCAAGCAAUCGGUCAG [Fam1A.1 aminoacylation ribozyme variant] ?
0.86

Could you tell me which self-aminoacylation is on file for AUUACCCUGGUCAGCAAGUGA [Fam2.1 aminoacylation ribozyme variant] ?
2.95

Could you tell me which self-aminoacylation is on file for CUACUUCAAACAAUCAGUAUG [Fam1A.1 aminoacylation ribozyme variant] ?
0.847

Could you tell me which self-aminoacylation is on file for AUUCAAUUAGGUCAUCGGGUG [Fam2.2 aminoacylation ribozyme variant] ?
3.56

Could you tell me which self-aminoacylation is on file for AUUACCCUUCUCAUCGAGUGA [Fam2.1 aminoacylation ribozyme variant] ?
3.51

Could you tell me which self-aminoacylation is on file for AAGUUUGCUAAUCGUCGCAAU [Fam3.1 aminoacylation ribozyme variant] ?
1.39

Could you tell me which self-aminoacylation is on file for AAUCACUUAGGUCAUCGGGUG [Fam2.2 aminoacylation ribozyme variant] ?
5.09

###

tested on: biotinyl-Met-oxazolone; experiment: self-aminoacylation, catalytic enhancement (BMO) (fold over background); higher = more active; k-Seq, kA / k0A0; sequences stand for … in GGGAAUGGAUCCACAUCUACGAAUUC…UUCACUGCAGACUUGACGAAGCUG
This sample holds only a part of the variants without activity.
Label not met if self-aminoacylation falls below 3; label met in every other case.

Example entries begin here.
>>> label_class("AUGUUUGCUAAUAGUCGCACG [Fam3.1 aminoacylation ribozyme variant]")
"not met"
>>> label_class("AUUACCCUGCUCAUCCAGUGA [Fam2.1 aminoacylation ribozyme variant]")
"met"
>>> label_class("ACGCACCUAGGUCAUCGGGUG [Fam2.2 aminoacylation ribozyme variant]")
"met"
>>> label_class("AAGUUUUCUAAUAGUCGCGAG [Fam3.1 aminoacylation ribozyme variant]")
"not met"
>>> label_class("AUUCUCCUAGGUAAUCGGGUG [Fam2.2 aminoacylation ribozyme variant]")
"met"

Next sequence, please.
Textbook exercise: given the entry CUACCUCAAACAAUCGGUCUU [Fam1A.1 aminoacylation ribozyme variant] , state whether its self-aminoacylation is greater than or equal to 3.
not met
